# Tested on: NCI-H226 lung
# Measurement notes: NCI-60 one-dose screen, 48 h (100 = growth as untreated, 0 = no growth, -100 = all killed)
# Condition details: 10 µM unless noted
About 83,000 compounds went through this panel and 20% of them were active in at least one assay; those are over-represented in the sample as a whole.
I would appreciate it if you labelled entries Criterion met when growth is 70% or higher, otherwise Criterion not met.

Some solved cases for reference:
# Molecule, Qualitative label
data = [
    ("CCCCCCCCCCC(C(O)c1ccccc1)N1CCCCC1 (stereo not given)", "Criterion not met"),
    ("C=CCn1c(SCC(=O)Nc2ccc(/C(C)=N\\O)cc2)nnc1-c1cc(-c2ccccc2)nc2ccccc12", "Criterion not met"),
    ("COc1ccc(C(=O)/C=C/c2cn(-c3ccccc3)nc2-c2cccc(Nc3ccnc4cc(Cl)ccc34)c2)cc1", "Criterion met"),
    ("CC(=O)c1ccc(-n2c(-c3cc(-c4ccsc4)n[nH]3)n[nH]c2=S)cc1", "Criterion met"),
]

Here's the next entry for you.
Does COC(=O)c1cc2oc(/C=N/NC(=O)c3cc4oc(-c5cccc(C(F)(F)F)c5)cc4[nH]3)cc2n1Cc1ccccc1 have a reported growth of at least 70%?
Criterion met

---

# System: NCI/ADR-RES ovarian
# Measurement notes: NCI-60 one-dose screen, 48 h (100 = growth as untreated, 0 = no growth, -100 = all killed)
# Condition details: 10 µM unless noted
# Protocol: Growth inhibition of the NCI/ADR-RES human […] tumor cell line is measured as a screen for anti-cancer activity. Cells are grown in 96 well plates and exposed to the test compound for 48 hours. Compounds are tested at a single concentration, which is 10^-5 M for most compounds. The reported endpoint is percent growth (GI% or GIPRCNT), where numbers from 0 - 100% represent growth inhibition, and numbers from -100% - 0 represent cell death. For example, a value of 40 represents 60% growth inhibition. […]
This is part of a sample that, as a whole, favours compounds with a hit. Of some 83,000 tested, about 20% had one in any assay.
The entries below are paired with their reported growth.
Reply numerically in %, unit not repeated.

# annotated cases, reported growth shown
# Molecular string, Value unit, growth
data = [
    ("Cc1ccc(-c2nc3ccccc3c(=O)n2/N=C/c2cccc3ccccc23)cc1", "%", 78.6),
    ("Oc1[nH]c2ccccc2c1/C=c1/ccc2c(c1)N=C(c1ccc(C(F)(F)F)cc1)N=2", "%", 69.1),
    ("Cc1cc(C)c2c(NC(=O)Nc3ccc(Cl)c(Cl)c3)n[nH]c2n1", "%", 102),
    ("C=CCN(CCOC(=O)c1ccc([N+](=O)[O-])cc1)CCOC(=O)c1ccc([N+](=O)[O-])cc1", "%", 96.8),
    ("CCCc1cc2c(cc1CN(Cc1cc3c(cc1CCC)OCO3)C(=N)OCC)OCO2", "%", 91.2),
    ("Cc1cc(C)c(C#N)c(SCC(=O)c2sc3c(C#N)c(C)cc(C)[n+]3c2[O-])n1", "%", 12),
    ("CN1CCN(Cc2ccc(NC(=O)c3cccc(C#Cc4cnc(N)c5ncccc45)c3F)cc2C(F)(F)F)CC1", "%", 61.3),
    ("CN1CCN(Cc2ccc(NC(=O)c3cncc(C#Cc4cnc5cccnn45)c3)cc2C(F)(F)F)CC1", "%", 18.3),
]

# get_value(readout='growth', item= C[C@]12CCc3nc(Nc4ccc(O)cc4)sc3C1=CC[C@@H]1[C@@H]2CC[C@]2(C)/C(=N/NC(N)=S)CC[C@@H]12 )
15

# get_value(readout='growth', item= CCNC(=S)N(Cc1ccccc1)Cc1ccccc1 )
106

# get_value(readout='growth', item= C#CCNC(=S)N/N=C(\C)c1ccccn1 )
8.45

---

# Test system: ACHN renal
# Measurement notes: NCI-60 one-dose screen, 48 h (100 = growth as untreated, 0 = no growth, -100 = all killed)
# Condition details: 10 µM unless noted
About 83,000 compounds went through this panel and 20% of them were active in at least one assay; those are over-represented in the sample as a whole.
The entries below are paired with their reported growth.
Reply numerically in %, unit not repeated.

# annotated cases, reported growth shown
# Compound, growth [%]
records = [
    ("O=C1OC(c2ccc(-c3ccccc3)cc2)=C/C1=C/c1c(Cl)cccc1Cl", 105),
    ("CCc1ccc2c(c1)N(CCO)C1=C(C(=O)OC1)C2c1cccc(Br)c1 (stereo not drawn)", 47.4),
    ("COCCOCCOCc1n(Cc2ccc3ccccc3n2)c2ccccc2[n+]1Cc1ccc2ccccc2c1", 71.1),
    ("Cc1ccc(NC(=O)Cn2nncc2CN2C(=O)CSC2=O)cc1C", 100),
    ("COc1ccc(C2C3=C(COC3=O)N(CCO)c3cc(OC)c(OC)cc32)cc1 (stereo not drawn)", 99.8),
    ("COc1ccc(Br)c2ccccc12", 102),
    ("COc1cc(C(=O)/C=C/c2cn(-c3ccccc3)nc2-c2cccc(Nc3ccnc4cc(Cl)ccc34)c2)cc(OC)c1OC", 108),
    ("Nc1c(C(=O)c2ccc(Br)cc2)sc2nc3c(cc12)CCCC3", 96.3),
]

# get_value(readout='growth', item= N=c1n(Cc2ccccc2)c(N)cc(=O)n1Cc1ccccc1 )
4.21

# get_value(readout='growth', item= FC1(F)CCN(Cc2c[nH]c3cc(Cl)ccc23)C[C@H]1CCc1ccccc1 )
62.5

# get_value(readout='growth', item= CC(=O)c1c(C)nc(-c2cc(C)cc(Cl)c2)nc1-c1cccc(Oc2ccccc2)c1 )
99.6

# get_value(readout='growth', item= O=c1[nH]cnc2nc[nH]c12 )
103

# get_value(readout='growth', item= O=C(CCCCCCc1nc2ccc(Br)cc2[nH]1)NO )
-36.2

# get_value(readout='growth', item= Cc1ccc(O)c(Cc2ccccc2)c1 )
100

# get_value(readout='growth', item= CO[C@@]12[C@@H]3NC3CN1C1=C(C(=O)C(N)=C(C)C1=O)[C@@H]2COC(N)=O (stereo partly drawn) )
-10.3

# get_value(readout='growth', item= O=Cc1ccc2nc(C(Cl)(Cl)Cl)ccc2c1 )
101

# get_value(readout='growth', item= COC(=O)c1cc(Cl)cc([N+](=O)[O-])c1O )
106

# get_value(readout='growth', item= COc1ccc(-c2cnc3ccnn3c2-c2cc(OC)c(OC)c(OC)c2)cc1 )
47.3

---

# System: HCT-15 colon
# Measurement notes: NCI-60 one-dose screen, 48 h
# Condition details: 10 µM unless noted
This is part of a sample that, as a whole, favours compounds with a hit. Of some 83,000 tested, about 20% had one in any assay. Calls of active or inactive are those of the source. The calls were made as follows: active = growth percent below 10; inactive = the rest.
Permitted responses: TRUE (active), FALSE (inactive)

Some solved cases for reference:
# Molecular string, Qualitative label
records = [
    ("N#Cc1ccc(NC(=O)Nc2nc3ccc(OC(F)(F)F)cc3s2)cc1", "TRUE"),
    ("Clc1ccc(Nc2ncnc3c2sc2ncccc23)cc1", "FALSE"),
    ("CCCCCCCCCCCCCC(=S)NCCCC[C@H](NC(=O)OCc1ccccc1)C(=O)Nc1ccccc1", "FALSE"),
]

Here's the next entry for you.
What is the recorded call for this compound in the test? Oc1ccc(Nc2ncnc3c2sc2ncccc23)cc1
FALSE

---

# Test system: OVCAR-4 ovarian
# Measurement notes: NCI-60 one-dose screen, 48 h (100 = growth as untreated, 0 = no growth, -100 = all killed)
# Condition details: 10 µM unless noted
Compounds without any hit were thinned out: in the full panel of roughly 83,000, 20% have a hit.
Measured property: growth (%)
Reply numerically in %, unit not repeated.

# annotated cases, reported growth shown
# Compound, Value unit, growth
records = [
    ("O=C1OCC2=C1C(c1cccc(Br)c1)c1cc3c(cc1N2CCO)OCCO3 (configuration not stated)", "%", 53.4),
    ("COc1ccc(/C=C/C(=O)c2ccc(NC(=O)CSc3nnc(-c4ccc(OC)cc4)n3-c3ccccc3)cc2)cc1", "%", 100),
    ("COc1ccc(/C(=C\\c2cc(OC)c(OC)c(OC)c2)C(=O)Nc2nc3ccc(Cl)cc3s2)cc1", "%", 104),
    ("C#CC[C@@H]1C[C@]2(C)[C@H]3CC=C4[C@H]5[C@@H](C)[C@H](C)CC[C@]5(C(=O)NCCCN5CCN(CCCN)CC5)CC[C@@]4(C)[C@]3(C)CC[C@H]2C(C)(C)[C@H]1OC(C)=O", "%", -17.5),
    ("CN1CCN(Cc2ccc(NC(=O)c3cnc(F)c(C#Cc4cnc(N)c5ncccc45)c3)cc2C(F)(F)F)CC1", "%", 16.6),
]

# get_value(readout='growth', item= CCN(C(=O)Nc1cccc2ccccc12)c1ccccc1 )
99.9

# get_value(readout='growth', item= COc1ccc(-c2[nH]nc(N)c2-c2cc(OC)c(OC)c(OC)c2)cc1 )
64.2

Values from PubChem BioAssay (NCI)
